# protocol: Inhibition of beta-lactamase VIM2 (unknown origin) expressed in Escherichia coli BL21(DE3) using imipenem as substrate by measuring substrate hydrolysis at 200 uM by spectrophotometric analysis
The source made the active and inactive calls. No cut-off for these calls is given here.
property_name: inhibition

Field: example entries. Status: answers known.
S=c1[nH]nc(C(c2ccccc2)c2ccccc2)n1/N=C/c1ccc(OCc2ccccc2)cc1; inactive
Oc1ccc(/C=N/n2c(-c3cccc(F)c3)n[nH]c2=S)c(O)c1; inactive
O=C(O)c1ccccc1/C=N/n1c(-c2ccc(Cl)cc2)n[nH]c1=S; inactive
O=C(O)c1ccccc1/C=N/n1c(-c2cccc(C(F)(F)F)c2)n[nH]c1=S; inactive
O=C(O)c1ccccc1/C=N/n1c(-c2ccccc2-c2ccccc2)n[nH]c1=S; inactive

Record request: inhibition value, item `Fc1cccc(-c2n[nH]c(=S)n2/N=C/c2ccc(OCc3ccccc3)cc2)c1`
inactive

Also need `S=c1[nH]nc(-c2ccccc2)n1/N=C/c1ccccc1` , thanks.
inactive

Also need `S=c1[nH]nc(Cc2ccccc2)n1/N=C/c1ccc(OCc2ccccc2)cc1` , thanks.
inactive

Also need `S=c1[nH]nc(-c2cccc(Br)c2)n1/N=C/c1ccc(OCc2ccccc2)cc1` , thanks.
inactive

Also need `Cc1ccccc1-c1n[nH]c(=S)n1/N=C/c1ccc([N+](=O)[O-])cc1` , thanks.
inactive
